- Test system: zebrafish (ABiC) embryos
- protocol summary: Zebrafish embryo developmental toxicity assay
- Type: in vivo, zebrafish (Danio rerio)
- Design: unit not given here
- recorded conditions: 72 hpf, 50 μM
value type: Mean survival rate of zebrafish embryos
API note: the answer field is a bare number with no unit suffix.

As a guide, the following entries are already answered.
- record smiles: "O=C1N[C@@H](Cc2ccc(O)cc2)C(=O)N2CCC[C@@H]12"
  Mean survival rate of zebrafish embryos: 75.51
- record smiles: "CC(C)[C@@H]1NC(=O)[C@@H]2CCCN2C1=O"
  Mean survival rate of zebrafish embryos: 68.88
- record smiles: "O=C1N[C@@H](Cc2ccccc2)C(=O)N2CCC[C@@H]12"
  Mean survival rate of zebrafish embryos: 77.77

The reported Mean survival rate of zebrafish embryos of the compound `CC(C)C[C@@H]1NC(=O)[C@@H]2CCCN2C1=O` was 71.11

Data provenance is paper PMC7426938.
